The reported measurements were obtained from paper PMC12040169.

assay: in vitro; conditions: human, hela cells, % viability
Would you kindly list viability at 28.5 h, 10 µM for each of these compounds?
State just the number; it will be interpreted in %.

Ask | Name the recorded viability at 28.5 h, 10 µM for O=C(COc1ccc(Br)cc1)Nc1ccc(CN2CCCCC2)cc1 [CBK266181] .
Reply | 99.5

Ask | Name the recorded viability at 28.5 h, 10 µM for Cc1ccc(C)c(NC(=O)Cc2nc(CN3CCNC(=O)C3)cs2)c1 [CBK305071] .
Reply | 96.4

Ask | Name the recorded viability at 28.5 h, 10 µM for O=C(CSCc1ccc(Br)cc1)N1CCN(Cc2ccc3c(c2)OCO3)CC1 [CBK268059] .
Reply | 89.7

Ask | Name the recorded viability at 28.5 h, 10 µM for COCCN(CC1CC1)C(=O)NCc1cccc(Cl)c1 [CBK304368] .
Reply | 93.4

Ask | Name the recorded viability at 28.5 h, 10 µM for O=C1CCCN1CCOc1nccnc1-c1ccsc1 [CBK106759] .
Reply | 89.7

Ask | Name the recorded viability at 28.5 h, 10 µM for Nc1nn2c(-c3cccc(Cl)c3)nnc2s1 [CBK288122] .
Reply | 73.2

###

test: in vitro; conditions: human, hela cells, % viability
Would you kindly list viability at 28.5 h, 10 µM for each of these molecules?
State just the number; it will be interpreted in %.

Ask | Name the recorded viability at 28.5 h, 10 µM for CC(=O)Nc1nc(C)c(S(=O)(=O)Nc2nc(C(C)C)ns2)s1 .
Reply | 90.9

Ask | Name the recorded viability at 28.5 h, 10 µM for Cc1noc(C)c1C(=O)N1CCN(Cc2ccccc2)CC1 .
Reply | 90.9

Ask | Name the recorded viability at 28.5 h, 10 µM for COc1ccc(N2CCN(c3cncc(-c4cccs4)n3)CC2)cc1OC .
Reply | 104

Ask | Name the recorded viability at 28.5 h, 10 µM for CCN(CC)c1c(C)nc2ccc(C(=O)Nc3cc(-c4ccccc4)ccc3OC)cn12 .
Reply | 121

Ask | Name the recorded viability at 28.5 h, 10 µM for C[C@@H](Cn1nc2c(cc1=O)CCCC2)NC(=O)Cc1ccc(F)cc1 .
Reply | 100

###

test: in vitro; conditions: human, hela cells, % viability
Would you kindly list viability at 28.5 h, 10 µM for each of these compounds?
State just the number; it will be interpreted in %.

Ask | Name the recorded viability at 28.5 h, 10 µM for Cn1c(/C=C/C=C/CN2CCN(Cc3ccccc3)CC2)nc2ccc([N+](=O)[O-])cc21 .
Reply | 91.2

Ask | Name the recorded viability at 28.5 h, 10 µM for c1cnn(CC2CCCN2c2ncnc3sccc23)c1 (stereo not drawn) .
Reply | 92.5

Ask | Name the recorded viability at 28.5 h, 10 µM for CCC1CCCN(C(=O)Cc2c(C)nc(-c3cccnc3)[nH]c2=O)C1 (stereo not drawn) .
Reply | 91.7

Ask | Name the recorded viability at 28.5 h, 10 µM for C=CCNc1nccnc1-c1cccc(O)c1 .
Reply | 88.2

Ask | Name the recorded viability at 28.5 h, 10 µM for O=S(=O)(NCc1cccc(F)c1)c1ccc(OC(F)(F)F)cc1 .
Reply | 88.5

Ask | Name the recorded viability at 28.5 h, 10 µM for COc1ccc(Cn2nc(NS(=O)(=O)c3cn(C)cn3)c3ccccc32)cc1 .
Reply | 87.7

###

test system: CTL2-GFP (C. trachomatis L2/434/Bu, GFP-expressing); construct: L2/434/Bu, GFP-expressing; assay: microbe, parasite or virus in culture; parameters: Intracellular C. trachomatis growth in HeLa cells, bulk GFP fluorescence relative to DMSO; conditions: Chlamydia trachomatis, HeLa, 28.5 h; bulk GFP, mean of 2; read-out: % of control remaining
assay-readout: activity at 5 µM

Ask | Name the recorded activity at 5 µM for C/C(Nc1ccc(S(=O)(=O)Nc2nccc(C)n2)cc1)=C1\C(=O)N(c2nc3ccccc3s2)N=C1C(F)(F)F .
Reply | 15.5%

Ask | Name the recorded activity at 5 µM for CCCN(CCC)CCc1cccc2c1CCN2C(=O)c1cc2ccccc2s1 [CBK017871C] .
Reply | 18.2%

Ask | Name the recorded activity at 5 µM for Cc1noc(NS(=O)(=O)c2ccc(N/C=C\C(=O)c3cccnc3)cc2)c1C .
Reply | 13.6%

Ask | Name the recorded activity at 5 µM for CCc1nnc(NS(=O)(=O)c2ccc(N/C=C\C(=O)c3ccc4ccccc4c3)cc2)s1 .
Reply | 23.6%

Ask | Name the recorded activity at 5 µM for Cc1ccc(Nc2ncc(C(=O)NCCCN3CCN(c4cccc(Cl)c4)CC3)c3ccccc23)cc1Cl .
Reply | 83.3%

Ask | Name the recorded activity at 5 µM for CC(C)NCC(O)Cn1c2c(c3ccccc31)CCc1c-2cnn1-c1ccccc1 (stereo not drawn) .
Reply | 105%

Ask | Name the recorded activity at 5 µM for Oc1ccc(Cn2cnc3ccccc32)c2cccnc12 .
Reply | 47.1%

Ask | Name the recorded activity at 5 µM for CC1=NN(c2ccc(C)cc2)C(=O)/C1=C\Nc1ccc(S(=O)(=O)Nc2nc(C)cc(C)n2)cc1 .
Reply | 16.3%

Ask | Name the recorded activity at 5 µM for CC(Nc1cccc2ccccc12)C(=O)N/N=C/c1ccc(O)cc1O (stereo not drawn) .
Reply | 62.9%

Ask | Name the recorded activity at 5 µM for CC(Oc1cccc2ccccc12)C(=S)N(C)c1ccccc1 (stereo not drawn) .
Reply | 81.4%

Ask | Name the recorded activity at 5 µM for CCN(CC)CCNc1nc(-c2cccc(Cl)c2)nc2ccccc12 [CBK267265C] .
Reply | 98.1%

Ask | Name the recorded activity at 5 µM for Cc1cc(C)nc(NS(=O)(=O)c2ccc(NC(=O)N3c4ccccc4Sc4ccccc43)cc2)n1 .
Reply | 67.1%

Ask | Name the recorded activity at 5 µM for CCCCC(=O)/N=C(\N)Nc1nc2ccccc2o1 .
Reply | 117%

Ask | Name the recorded activity at 5 µM for NC(Cc1ccccc1)CN(CC1(c2ccc(Cl)cc2)CC1)C(=O)Nc1ccc2c(c1)OCO2 (stereo not drawn) [CBK002342C] .
Reply | 102%

Ask | Name the recorded activity at 5 µM for COCC(=O)N[C@H]1C[C@H]2C(=O)Nc3ccc(/C=C/c4ccccc4)cc3C(=O)N2C1 .
Reply | 12%

Ask | Name the recorded activity at 5 µM for COc1cc2c(cc1CNC(=O)c1cn(CCN)nn1)CCC2 .
Reply | 109%

Ask | Name the recorded activity at 5 µM for C[C@H](NC(=O)Cc1ccc(-c2ccccc2)cc1)c1nc2ccccc2[nH]1 .
Reply | 142%

Ask | Name the recorded activity at 5 µM for COc1ccc(Br)cc1C1CC(=O)Nc2c(-c3cccc(F)c3)csc21 (stereo not drawn) .
Reply | 65.3%

Ask | Name the recorded activity at 5 µM for Cc1cc(C(=O)Nc2cccc(S(=O)(=O)N3CCOCC3)c2)sc1-c1ccccc1 .
Reply | 88.9%

Ask | Name the recorded activity at 5 µM for Cc1noc(NS(=O)(=O)c2ccc(NC(=O)COc3cccc(Br)c3)cc2)c1C .
Reply | 38.7%

Ask | Name the recorded activity at 5 µM for O=C(N/N=C/c1c(O)ccc2ccccc12)c1ccc(CO)nc1 .
Reply | 69%

###

Would you kindly list viability at 28.5 h, 10 µM for each of these molecules?
assay: in vitro; settings: human, hela cells, % viability
State just the number; it will be interpreted in %.

Ask | Name the recorded viability at 28.5 h, 10 µM for O=C(O)CCCC(=O)N1CCN(C(=O)c2sc3cc(Cl)ccc3c2Cl)CC1 [CBK286973] .
Reply | 91

Ask | Name the recorded viability at 28.5 h, 10 µM for Cc1cc(NCc2ccccc2)nc2[nH]nc(N)c12 [CBK287931] .
Reply | 87.7

Ask | Name the recorded viability at 28.5 h, 10 µM for COc1cc(NC(=O)c2c(C)[nH]c(=O)[nH]c2=S)cc(C(F)(F)F)c1 [CBK115495] .
Reply | 92.3

Ask | Name the recorded viability at 28.5 h, 10 µM for CCN1CCCCC1CNC(=O)c1sc(C)nc1C (stereo not shown) [CBK282206] .
Reply | 90.2

###

experiment: in vitro; conditions: human, hela cells, % viability
assay-readout: viability at 28.5 h, 10 µM (%)
State just the number; it will be interpreted in %.

Ask | Name the recorded viability at 28.5 h, 10 µM for Clc1nccnc1N1CCCC1 .
Reply | 101

Ask | Name the recorded viability at 28.5 h, 10 µM for CCC(C)c1cc([N+](=O)[O-])cc([N+](=O)[O-])c1OC(=O)OC(C)C (stereo not shown) .
Reply | 99.2

Ask | Name the recorded viability at 28.5 h, 10 µM for O=C(OCc1ccc(S(=O)(=O)N2CCOCC2)cc1)c1cc(-c2ccccc2)nc2ccccc12 .
Reply | 89.6

Ask | Name the recorded viability at 28.5 h, 10 µM for Cn1c(-c2ccc(CN3CCCC3)cc2)nc2onc(-c3ccccc3)c2c1=O [CBK039188C] .
Reply | 95.2

Ask | Name the recorded viability at 28.5 h, 10 µM for Cc1ccc(-c2cc(C(=O)NC3CN4CCC3CC4)[nH]n2)o1 (stereo not shown) .
Reply | 104

Ask | Name the recorded viability at 28.5 h, 10 µM for O=S(=O)(c1ccc(C(F)(F)F)cc1Cl)N1CCN(Cc2ccc3cccc(O)c3n2)CC1 .
Reply | 94.1

Ask | Name the recorded viability at 28.5 h, 10 µM for O=C(Nc1cc(Cl)ccc1O)c1ccc(C(=O)Nc2cc(Cl)ccc2O)cc1 .
Reply | 94.9
